Protocol Description: Clearance in rat plasma at 10 mg/kg, po or 3 mg/kg, iv by LC/MS/MS analysis
Assay type: ADME, organism-based
Property Measured: clearance (mL/min/kg)
Use mL/min/kg as the unit, but write only the number.

Data request: I would be grateful if you could share the reported clearance for CC#C[C@@H](CC(=O)O)c1ccc(OCc2ccc(CN3CCC4(C=Cc5ccccc54)CC3)cc2)cc1 .
Data returned: 11.6

----------
Protocol Description: Oral bioavailability in dog at 5 mg/kg by LC/MS/MS analysis
Assay type: ADME, organism-based, Canis lupus familiaris
Condition Info: in vivo
Property Measured: bioavailability (%)
Use % as the unit, but write only the number.

Data request: I would be grateful if you could share the reported bioavailability for CC#C[C@@H](CC(=O)O)c1ccc(OCc2ccc(CN3CCC4(C=Cc5ccccc54)CC3)cc2)cc1 .
Data returned: 74

----------
Tested Target: Free fatty acid receptor 1 (Homo sapiens)
Sequence (O14842 whole entry, the tested form may be a part): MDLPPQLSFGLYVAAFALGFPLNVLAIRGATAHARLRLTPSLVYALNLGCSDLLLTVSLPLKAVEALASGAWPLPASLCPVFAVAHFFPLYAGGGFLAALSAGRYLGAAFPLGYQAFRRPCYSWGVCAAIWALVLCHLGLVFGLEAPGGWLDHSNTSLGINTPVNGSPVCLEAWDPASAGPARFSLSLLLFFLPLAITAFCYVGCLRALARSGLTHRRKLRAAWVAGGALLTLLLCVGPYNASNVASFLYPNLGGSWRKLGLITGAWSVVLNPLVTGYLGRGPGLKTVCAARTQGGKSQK
Protocol Description: Agonist activity at human recombinant full-length Prolink-tagged GPR40 fused with EA-tagged beta-arrestin expressed in human HEK293 cells assessed as induction of beta-arrestin recruitment measured after 90 mins by beta-galactosidase based PathHunter assay relative to control
Type: cell-based
Condition Info: filed as agonist
# reported Emax; entries follow
Use % as the unit, but write only the number.

Please review the following examples before continuing.
{"Entry Smiles": "CC#C[C@@H](CC(=O)O)c1ccc(OCc2ccc(CN3CCC4(C=Cc5ccccc54)CC3)o2)cc1", "Emax (%)": 121}
{"Entry Smiles": "CC#C[C@@H](CC(=O)O)c1ccc(OCc2ncc(CN3CCC4(C=Cc5ccccc54)CC3)s2)cc1", "Emax (%)": 117}
{"Entry Smiles": "CC#C[C@@H](CC(=O)O)c1ccc(OCc2ccc(CN3CCC4(C=Cc5ccccc54)CC3)cc2)cc1F", "Emax (%)": 118}
{"Entry Smiles": "O=C(O)CCc1ccc(OCc2ccc(CN3CCC4(C=Cc5ccccc54)CC3)cc2)cc1Cl", "Emax (%)": 133}
{"Entry Smiles": "CC#C[C@@H](CC(=O)O)c1ccc(OCc2ccc(CN3CCC4(C=Cc5ccccc54)CC3)cc2)cc1", "Emax (%)": 137}

Data request: I would be grateful if you could share the reported Emax for CC#C[C@@H](CC(=O)O)c1ccc(OCc2ccc(CN3CCC4(C=Cc5ccccc54)CC3)c(Cl)c2)cc1 .
Data returned: 150

----------
Tested Target: Free fatty acid receptor 1 (Homo sapiens)
Protocol Description: Agonist activity at human recombinant full length GPR40 overexpressed in human HEK293 cells assessed as increase in intracellular calcium level measured over 3 mins by calcium 4 dye based FLIPR assay
Assay type: functional, cell-based
Property Measured: pEC50
pEC50 is a log-scale quantity: -log10 of the concentration expressed in molar.

Please review the following examples before continuing.
{"Entry Smiles": "CC#C[C@@H](CC(=O)O)c1ccc(OCc2ccc(CN3CCC4(CC3)CN(C)c3ccc(OC)cc34)cc2)cc1", "Data Value": 6.89}
{"Entry Smiles": "CC#C[C@@H](CC(=O)O)c1ccc(OCc2ncc(CN3CCC4(C=Cc5ccccc54)CC3)s2)cc1", "Data Value": 8.55}
{"Entry Smiles": "CC#C[C@@H](CC(=O)O)c1ccc(OCc2ccc(CN3CCC4(CCc5ccccc54)CC3)cc2)cc1", "Data Value": 7.72}

Okay, now this compound:
Data request: I would be grateful if you could share the reported pEC50 for CC#C[C@@H](CC(=O)O)c1ccc(OCc2ccc(CN3CCC4(C=Cc5ccccc54)CC3)c(F)c2)cc1 .
Data returned: 7.77

----------
# reported EC50; entries follow
Tested Target: Free fatty acid receptor 1 (Homo sapiens)
Protocol Description: Agonist activity at human recombinant full length GPR40 overexpressed in human HEK293 cells assessed as increase in intracellular calcium level measured over 3 mins by calcium 4 dye based FLIPR assay
Format: functional, cell-based
Use nM as the unit, but write only the number.

Data request: I would be grateful if you could share the reported EC50 for CC#C[C@@H](CC(=O)O)c1ccc(OCc2cnc(CN3CCC4(C=Cc5ccccc54)CC3)s2)cc1 .
Data returned: 4.4

Data request: I would be grateful if you could share the reported EC50 for CC#C[C@@H](CC(=O)O)c1ccc(OCc2ccc(CN3CCC4(C=Cc5ccccc54)CC3)s2)cc1 .
Data returned: 12

Data request: I would be grateful if you could share the reported EC50 for CC#C[C@@H](CC(=O)O)c1ccc(OCc2sc(CN3CCC4(C=Cc5ccccc54)CC3)nc2C)cc1 .
Data returned: 17

Data request: I would be grateful if you could share the reported EC50 for O=C(O)CCc1ccc(OCc2ccc(CN3CCC4(C=Cc5ccccc54)CC3)cc2)cc1F .
Data returned: 180

Data request: I would be grateful if you could share the reported EC50 for CC#C[C@@H](CC(=O)O)c1ccc(OCc2ccc(CN3CCC4(CC3)CN(C(C)C)c3ccccc34)cc2)cc1 .
Data returned: 24

Data request: I would be grateful if you could share the reported EC50 for CC#C[C@@H](CC(=O)O)c1ccc(OCc2ccc(CN3CCC4(CCc5ccccc54)CC3)s2)cc1 .
Data returned: 8

Data request: I would be grateful if you could share the reported EC50 for CC#C[C@H](CC(=O)O)c1ccc(OCc2ccc(CN3CCC4(C=Cc5ccccc54)CC3)cc2)cc1 .
Data returned: 2800

Data request: I would be grateful if you could share the reported EC50 for CC#C[C@@H](CC(=O)O)c1ccc(OCc2ccc(CN3CCC4(CC3)CN(c3ccccc3)c3ccccc34)cc2)cc1 .
Data returned: 21

----------
Tested Target: Peroxisome proliferator-activated receptor delta (Homo sapiens)
Sequence (whole entry): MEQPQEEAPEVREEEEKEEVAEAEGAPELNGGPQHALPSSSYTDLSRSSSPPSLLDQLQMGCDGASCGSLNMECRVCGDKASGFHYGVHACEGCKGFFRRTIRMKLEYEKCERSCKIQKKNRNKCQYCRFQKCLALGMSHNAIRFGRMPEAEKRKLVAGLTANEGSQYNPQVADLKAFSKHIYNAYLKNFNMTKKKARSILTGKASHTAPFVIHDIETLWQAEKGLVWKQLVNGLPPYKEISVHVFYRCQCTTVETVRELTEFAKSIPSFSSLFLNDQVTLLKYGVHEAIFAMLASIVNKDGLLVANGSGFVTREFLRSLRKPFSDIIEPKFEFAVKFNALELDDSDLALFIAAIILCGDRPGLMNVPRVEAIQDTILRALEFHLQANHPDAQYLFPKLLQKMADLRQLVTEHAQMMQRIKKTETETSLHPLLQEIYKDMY
Protocol Description: Displacement of [3H]-[…] from PPARdelta (unknown origin) expressed in baculovirus infected Sf9 insect cells upto 30 uM measured after 10 hrs by microbeta scintillation counting analysis
Condition Info: dose microM <=30, time 10.0 hrs
The source made the active and inactive calls. The calls are words filed in the database; no cut-off is given here.
Property Measured: Activity

{"Entry Smiles": "Cc1cc(OCCCS(C)(=O)=O)cc(C)c1-c1cccc(COc2ccc3c(c2)OC[C@H]3CC(=O)O)c1", "Activity": "inactive"}
{"Entry Smiles": "CC#C[C@@H](CC(=O)O)c1ccc(OCc2cc(C)c(CN3CCC4(C=Cc5ccccc54)CC3)s2)cc1", "Activity": "inactive"}
{"Entry Smiles": "CC#C[C@@H](CC(=O)O)c1ccc(OCc2ccc(CN3CCC4(CC3)CN(c3ccccc3)c3ccccc34)cc2)cc1", "Activity": "inactive"}
{"Entry Smiles": "CC#C[C@@H](CC(=O)O)c1ccc(OCc2ccc(CN3CCC4(CC3)CN(C)c3ccc(C(F)(F)F)cc34)cc2)cc1", "Activity": "inactive"}
{"Entry Smiles": "CC#C[C@H](CC(=O)O)c1ccc(OCc2ccc(CN3CCC4(C=Cc5ccccc54)CC3)cc2)cc1F", "Activity": "inactive"}

Data request: I would be grateful if you could share the reported Activity for CC#C[C@@H](CC(=O)O)c1ccc(OCc2ccc(CN3CCC4(CCc5ccccc54)CC3)s2)cc1 .
Data returned: inactive

Data request: I would be grateful if you could share the reported Activity for CC#C[C@@H](CC(=O)O)c1ccc(OCc2ccc(CN3CCC4(C=Cc5ccccc54)CC3)c(C)c2)cc1 .
Data returned: inactive

Data request: I would be grateful if you could share the reported Activity for CC#C[C@@H](CC(=O)O)c1ccc(OCc2ccc(CN3CCC4(CC3)CN(C(C)C)c3ccccc34)cc2)cc1 .
Data returned: inactive

----------
Tested Target: Free fatty acid receptor 1 (Homo sapiens)
Protocol Description: Agonist activity at human recombinant full length GPR40 overexpressed in human HEK293 cells assessed as increase in intracellular calcium level measured over 3 mins by calcium 4 dye based FLIPR assay relative to 100 uM linoleic acid
Format: functional, cell-based
Condition Info: filed as agonist
Labelling: Emax reported below 50% becomes fulfilled; at or above becomes not fulfilled.

Please review the following examples before continuing.
{"Entry Smiles": "O=C(O)C[C@@H](c1ccc(OCc2ccc3nc(-c4ccccc4)nn3c2)cc1)c1ccon1", "Group": "not fulfilled"}
{"Entry Smiles": "CC#C[C@H](CC(=O)O)c1ccc(OCc2ccc(CN3CCC4(C=Cc5ccccc54)CC3)cc2)cc1F", "Group": "not fulfilled"}
{"Entry Smiles": "CC#C[C@@H](CC(=O)O)c1ccc(OCc2ccc(CN3CCC4(C=Cc5ccccc54)CC3)cc2)cc1F", "Group": "not fulfilled"}
{"Entry Smiles": "CC#C[C@@H](CC(=O)O)c1ccc(OCc2ccc(CN3CCC4(C=Cc5ccccc54)CC3)c(C(F)(F)F)c2)cc1", "Group": "not fulfilled"}
{"Entry Smiles": "CC#C[C@@H](CC(=O)O)c1ccc(OCc2ccc(CN3CCC4(CC3)CN(C)c3ccccc34)cc2)cc1", "Group": "fulfilled"}
{"Entry Smiles": "CC#C[C@@H](CC(=O)O)c1ccc(OCc2sc(CN3CCC4(C=Cc5ccccc54)CC3)nc2C)cc1", "Group": "not fulfilled"}

Data request: In plain terms, does CC#C[C@@H](CC(=O)O)c1ccc(OCc2cnc(CN3CCC4(C=Cc5ccccc54)CC3)s2)cc1 come in under 50% for Emax?
Data returned: not fulfilled

Data request: In plain terms, does CC#C[C@@H](CC(=O)O)c1ccc(OCc2nc(C)c(CN3CCC4(C=Cc5ccccc54)CC3)s2)cc1 come in under 50% for Emax?
Data returned: not fulfilled

Data request: In plain terms, does CC#C[C@@H](CC(=O)O)c1ccc(OCc2ccc(CN3CCC4(CC3)CN(C)c3ccc(C(F)(F)F)cc34)cc2)cc1 come in under 50% for Emax?
Data returned: fulfilled

Data request: In plain terms, does CC#C[C@@H](CC(=O)O)c1ccc(OCc2ccc(CN3CCC4(CC3)CN(C(C)C)c3ccccc34)cc2)cc1 come in under 50% for Emax?
Data returned: fulfilled
